test system: OVCAR-3; assay: Antiproliferative activity against human OVCAR-3 cells assessed as reduction in cell viability incubated for 72 hrs by MTT assay; assay type: functional, cell-based; details: OVCAR-3, 72 h
IC50: recorded values

Give recorded IC50 with OVCAR-3 for the following compound: O=c1cc(-c2ccccc2)[nH]c2ccc3c(ccn3CC3CC3)c12 20 nM

Give recorded IC50 with OVCAR-3 for the following compound: CCOC(=O)CCn1ccc2c3c(=O)cc(-c4ccccc4)[nH]c3ccc21 5 nM

---

test system: MV4-11; test: Antiproliferative activity against human MV4-11 cells assessed as reduction in cell growth incubated for 48 hrs by MTT assay; format: functional, cell-based; conditions: MV4-11, 48 h
quantity-kind: IC50 (nM)
Please state the figure in nM; there is no need to write the unit.

Which IC50 is listed for COc1cc2c(cc1CC=C(C)C)C(=O)NC(c1ccc(O)cc1)N2 (stereo unspecified) ? 500

---

target: Tubulin (Homo sapiens) (UniProt P68371+Q9H4B7+P0DPH7+P68366+Q13509+Q71U36+P04350+Q3ZCM7+P07437+P68363+Q9BQE3+Q6PEY2+Q13885+Q9BVA1+Q9BUF5); assay: Inhibition of [3H]-colchicine binding to tubulin (unknown origin) at 5 uM relative to control; type: protein-complex assay
Respond with TRUE for inhibition values of 80% and above, FALSE for values below.

Please review the following examples before continuing.
- compound: "CCOC(=O)CCn1ccc2c3c(=O)cc(-c4ccccc4)[nH]c3ccc21"
  label-class: "FALSE"
- compound: "O=c1cc(-c2ccccc2)[nH]c2ccc3c(ccn3CC3CC3)c12"
  label-class: "TRUE"
- compound: "COc1ccc(-c2oc3cc(O)c(OC)c(O)c3c(=O)c2OC)cc1O [CENTAUREIDIN]"
  label-class: "FALSE"

Could you tell me if the measured inhibition of COc1ccc(-c2cc(=O)c3cc(OC)c(OC)c(OC)c3o2)cc1 reaches 80% or more? FALSE

Could you tell me if the measured inhibition of COc1ccc(-c2oc3c(OC)c(OC)c(OC)c(O)c3c(=O)c2OC)cc1O reaches 80% or more? FALSE

---

biological target: Tubulin; assay: Inhibition of tubulin polymerization (unknown origin)
IC50: recorded values
Please state the figure in nM; there is no need to write the unit.

- smiles-notation: "COc1ccc(-c2cc(=O)c3cc(OC)c(OC)c(OC)c3o2)cc1"
  target-system: "Tubulin"
  readout-unit: "nM"
  observed-measurement: 3000
- smiles-notation: "COc1ccc(-c2oc3c(OC)c(OC)c(OC)c(O)c3c(=O)c2OC)cc1O"
  target-system: "Tubulin"
  readout-unit: "nM"
  observed-measurement: 800
- smiles-notation: "CCOC(=O)CCn1ccc2c3c(=O)cc(-c4ccccc4)[nH]c3ccc21"
  target-system: "Tubulin"
  readout-unit: "nM"
  observed-measurement: 750

Query compound follows.
Which IC50 is listed for O=c1cc(-c2ccccc2)[nH]c2ccc3c(ccn3CC3CC3)c12 ? 900

---

biological target: Dual specificity mitogen-activated protein kinase kinase 1 (Homo sapiens, UniProt Q02750); assay: Inhibition of RAF1- induced activation of MEK (unknown origin) signalling pathway assessed as reduction in MEK1 phosphorylation
Sequence (Q02750 whole entry): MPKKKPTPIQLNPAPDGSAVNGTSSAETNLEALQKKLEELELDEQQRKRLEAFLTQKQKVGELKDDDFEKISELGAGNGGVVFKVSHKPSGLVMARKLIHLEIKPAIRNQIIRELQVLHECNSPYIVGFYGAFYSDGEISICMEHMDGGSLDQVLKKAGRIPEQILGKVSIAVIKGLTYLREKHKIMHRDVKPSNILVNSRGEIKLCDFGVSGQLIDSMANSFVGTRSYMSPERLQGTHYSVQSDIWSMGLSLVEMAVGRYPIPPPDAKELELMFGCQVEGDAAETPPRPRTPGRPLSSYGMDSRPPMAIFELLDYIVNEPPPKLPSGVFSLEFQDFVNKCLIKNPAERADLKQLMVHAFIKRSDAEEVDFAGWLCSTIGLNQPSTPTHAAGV
quantity-kind: IC50
Units required after the number.

Which IC50 is listed for COc1cccc(-c2cc(=O)c3ccccc3s2)c1N ? 4.35 µM
